System: HAdV5-GFP
Test: Plaque assay (inhibition of HAdV plaque formation)
Format: cell-based, HAdV-5
Conditions: read-out: Plaque Assay (%) Inhibition (10 μM)
Experimental: Plaque Assay. […] When cells reached 80-90% confluency, they were infected with HAdV5-GFP (0.06 vp/cell) and rocked for 2 h at 37° C. After the incubation the inoculum was removed, and the cells were washed once with PBS. Plaque Assay. Compounds were tested using low MOI infections (0.06 vp/cell) and at concentrations of 10 μM and in a dose-response assay ranging from 10 to 0.3 μM in a plaque assay. […]
# inhibition at 10 µM per entry
Just the number in %, nothing appended.

[ask] Entry CS(=O)(=O)Nc1ccc(Cl)cc1C(=O)Nc1ccc(NC2CCCC2)cc1Cl [Compound 140] has what inhibition at 10 µM?
[reply] 99.8

[ask] Param item: CSCC[C@H](NC(=O)c1cc(Cl)ccc1O)C(=O)Nc1ccc([N+](=O)[O-])cc1Cl [Compound 63]
[reply] 34.8

[ask] Also check CC1(Nc2ccc(NC(=O)c3cc(Cl)ccc3O)c(Cl)c2)CCCC1 [Compound 87]
[reply] 100

[ask] Now consider CCNc1ccc(NC(=O)c2cc(Cl)ccc2O)c(Cl)c1 [Compound 79] and answer again.
[reply] 100

[ask] Cool, now COc1ccc([C@@H](C)NC(=O)c2cc(Cl)ccc2O)cc1 [Compound 50]
[reply] 33.5

[ask] // next record CC1(ON(c2ccc(NC(=O)c3cc(Cl)ccc3O)c(Cl)c2)C2(C)CCCC2)CCCC1 [Compound 93]
[reply] 100

[ask] And then O=C(N[C@@H](Cc1ccccc1)C(=O)Nc1ccc([N+](=O)[O-])cc1Cl)c1cc(Cl)ccc1O [Compound 59] , what is it?
[reply] 100

[ask] Moving on to the next compound: O=C(NCc1ccc(NC2CCCC2)cc1Cl)c1cc(Cl)ccc1O [Compound 145]
[reply] 98.5
